# MEASURED_TARGET: human ether-à-go-go-related gene (hERG) potassium channel (human);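 also: peak tail current of the secondary pulse compared with the same well before compound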
# Sequence (Q12809 whole entry, looked up): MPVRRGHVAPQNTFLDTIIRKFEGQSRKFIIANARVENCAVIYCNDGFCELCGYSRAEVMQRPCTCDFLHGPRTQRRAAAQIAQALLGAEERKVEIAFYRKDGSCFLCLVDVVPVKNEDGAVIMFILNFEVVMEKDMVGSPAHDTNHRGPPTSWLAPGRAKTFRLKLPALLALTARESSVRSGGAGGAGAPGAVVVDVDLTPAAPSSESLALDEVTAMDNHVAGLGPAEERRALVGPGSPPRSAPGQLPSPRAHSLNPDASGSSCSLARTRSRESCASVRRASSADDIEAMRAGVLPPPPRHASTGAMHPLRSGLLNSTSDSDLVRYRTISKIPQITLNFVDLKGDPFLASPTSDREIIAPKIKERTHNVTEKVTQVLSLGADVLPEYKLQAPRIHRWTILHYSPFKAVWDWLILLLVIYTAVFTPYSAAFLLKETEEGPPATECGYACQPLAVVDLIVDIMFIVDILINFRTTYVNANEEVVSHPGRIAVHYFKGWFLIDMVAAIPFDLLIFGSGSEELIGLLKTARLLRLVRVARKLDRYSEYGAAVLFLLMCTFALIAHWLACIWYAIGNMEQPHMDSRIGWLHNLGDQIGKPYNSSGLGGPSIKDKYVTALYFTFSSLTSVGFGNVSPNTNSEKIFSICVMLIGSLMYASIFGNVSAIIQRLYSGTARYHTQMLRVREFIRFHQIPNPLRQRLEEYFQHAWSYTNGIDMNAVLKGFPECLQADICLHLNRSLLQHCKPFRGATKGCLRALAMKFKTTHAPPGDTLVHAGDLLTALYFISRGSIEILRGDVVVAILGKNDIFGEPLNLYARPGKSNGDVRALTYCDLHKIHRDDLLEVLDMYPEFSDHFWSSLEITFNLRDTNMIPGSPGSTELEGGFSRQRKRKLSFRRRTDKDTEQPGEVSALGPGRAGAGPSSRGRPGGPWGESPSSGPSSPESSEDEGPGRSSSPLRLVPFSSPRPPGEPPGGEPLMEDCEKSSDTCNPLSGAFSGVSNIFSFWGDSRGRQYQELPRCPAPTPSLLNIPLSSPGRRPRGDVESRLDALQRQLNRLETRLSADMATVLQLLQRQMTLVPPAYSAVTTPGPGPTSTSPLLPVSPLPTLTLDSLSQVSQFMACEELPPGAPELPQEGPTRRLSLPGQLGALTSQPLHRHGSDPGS
# PROTOCOL: primary screen, population patch clamp on CHO cells stably expressing hERG; higher = less effect of the substance
The campaign covered roughly 310,000 compounds. About 14,000 (4.5%) showed an effect of 50% or more. The effect is printed as a negative number. The sample holds strong results, similar compounds and a random draw of the others, so the mix is not that of the screen.
hERG current change (%, negative = inhibition) at 10uM below -30% gives n; hERG current change (%, negative = inhibition) at 10uM at or above it gives y.

Known results for compounds:
O=C(Nc1ccnn1C1CCN(C/C=C/c2ccccc2)CC1)c1ccccc1Cl | n
Fc1ccc(CSc2ccc3nnc(-c4ccccn4)n3n2)cc1 | n
CC(=O)c1cccc(NC(=O)NCc2cccnc2)c1 | y
O=C(CSc1ccc2nnc(-c3ccccn3)n2n1)Nc1ccccc1F | y
Cn1c(CCNC(=O)C(C)(C)C)nc2ccccc21 | y

Assess whether reported hERG current change (%, negative = inhibition) at 10uM for C=CCN1C(=O)NC(=O)/C(=C/c2cc3c4c(c2)CCCN4CCC3)C1=O sits at -30% or higher.
y

Assess whether reported hERG current change (%, negative = inhibition) at 10uM for Nc1nc(NC(=O)/C=C/c2ccc(F)cc2)nn1-c1ccccc1 sits at -30% or higher.
n

Assess whether reported hERG current change (%, negative = inhibition) at 10uM for CSc1ccccc1NC(=O)COc1ccccc1C sits at -30% or higher.
y

Assess whether reported hERG current change (%, negative = inhibition) at 10uM for Nc1nc(NC(=O)c2ccccc2)nn1-c1ccccc1 sits at -30% or higher.
n

Assess whether reported hERG current change (%, negative = inhibition) at 10uM for CCN(CC(=O)Nc1ccc(Cl)c(C(F)(F)F)c1)CC(=O)NC1CCS(=O)(=O)C1 (centres unmarked) sits at -30% or higher.
y

Assess whether reported hERG current change (%, negative = inhibition) at 10uM for COc1ccccc1N1CC(C(=O)Nc2nnc(SCC(=O)NC(C)C)s2)CC1=O (centres unmarked) sits at -30% or higher.
y

Assess whether reported hERG current change (%, negative = inhibition) at 10uM for O=C(Nc1ccnn1C1CCN(C/C=C/c2ccccc2)CC1)c1ccccc1 sits at -30% or higher.
n

Assess whether reported hERG current change (%, negative = inhibition) at 10uM for CCCCC(=O)Nc1cc(OCC)c(NC(=O)c2ccccc2[N+](=O)[O-])cc1OCC sits at -30% or higher.
y

Assess whether reported hERG current change (%, negative = inhibition) at 10uM for Cc1ccn2c(CNC(C)c3cn(C)nc3C)c(C(=O)N3CCCCCC3)nc2c1 (centres unmarked) sits at -30% or higher.
y

Assess whether reported hERG current change (%, negative = inhibition) at 10uM for O=C(COc1ccc(Br)cc1)N1CCN(c2ccc([N+](=O)[O-])c(N3CCCCC3)c2)CC1 sits at -30% or higher.
y

Assess whether reported hERG current change (%, negative = inhibition) at 10uM for Cc1ccccc1-n1c(C)nc2sccc2c1=O sits at -30% or higher.
y

Assess whether reported hERG current change (%, negative = inhibition) at 10uM for O=S(=O)(Nc1ccc(Br)cc1)c1cccc2nonc12 sits at -30% or higher.
y

Source: paper PMC4336329
